B1: Osa-1-4 twister ribozyme (parent)
chain: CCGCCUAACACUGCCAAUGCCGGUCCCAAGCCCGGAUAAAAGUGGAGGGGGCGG

- Variants of: B1
- Method Description: self-cleavage, relative activity (ratio to wild type); higher = more cleavage; co-transcriptional
Attribute Measured: self-cleavage
The answer should be a number; do not append a unit.

Below, 2 variants whose answers are already recorded.
INSERT INTO measurements (mutation_list, observed) VALUES
  ('A8U G48C', 0.05),
  ('C31A C52A', 0.05);

# self-cleavage (variant: A39U G23U ) is 0.05

# self-cleavage (variant: C31U G22U ) is 0.3

Source: the RNAGym collection of RNA variant scans (doi:10.1002/anie.201605470)
